measured-on: IRAK4 (Homo sapiens, UniProt Q9NWZ3)
Sequence (Q9NWZ3 1-460): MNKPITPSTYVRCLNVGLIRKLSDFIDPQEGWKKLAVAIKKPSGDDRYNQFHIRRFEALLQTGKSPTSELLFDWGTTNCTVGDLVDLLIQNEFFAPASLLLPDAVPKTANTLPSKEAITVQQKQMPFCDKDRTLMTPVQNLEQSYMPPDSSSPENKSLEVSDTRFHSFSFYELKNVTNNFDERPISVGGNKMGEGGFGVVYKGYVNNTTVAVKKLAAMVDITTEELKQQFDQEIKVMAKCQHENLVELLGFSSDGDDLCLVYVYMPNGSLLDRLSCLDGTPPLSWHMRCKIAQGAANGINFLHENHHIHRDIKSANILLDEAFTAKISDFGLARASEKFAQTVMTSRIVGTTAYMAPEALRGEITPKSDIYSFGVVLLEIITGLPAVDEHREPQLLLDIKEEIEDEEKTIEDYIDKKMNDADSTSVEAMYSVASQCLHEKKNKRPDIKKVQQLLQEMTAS
test-details: mRNA display affinity selection against IRAK4, NGS abundance
Format: binding
Design: acids 1-460; NP_057207.2) was purchased from Carna Biosciences; purchased Carna Biosciences (Kobe, Japan)
measurement-setup: IRAK4 selection pulldown (+); Top100 selection hits, NGS
// class assignment uses Raw reads with these ranges: one (below 20), two (20 to below 200), three (200 or more)

QUERY: Lab log: `TMLWKRRLFR` — assign Raw reads category
RESULT: one

QUERY: Repeat with `SLLWRKRIYR`
RESULT: three

QUERY: Quick one: `GPVIYNRRIYC`
RESULT: one

QUERY: Would you mind doing `TQRWKCRLYR` as well?
RESULT: one

QUERY: Another: `SMLWKRKIWG`
RESULT: three

QUERY: Try `RTFWRRRRYH` next.
RESULT: two

QUERY: Next entry: `SILWKKHIYK`
RESULT: three

QUERY: Try this sequence too: `TQRYRWRNYK`
RESULT: one

QUERY: Same read-out for `SMLWRRRKYA` ?
RESULT: one

QUERY: Could you do the same for `TQRWRARNYK` , please?
RESULT: three

QUERY: Another: `SQRYRNRNYQ`
RESULT: three

QUERY: Moving on to `RILWRRRRYH`
RESULT: two

QUERY: // repeat for `RLLWRRRNYA` and report
RESULT: two

QUERY: Also `STRWNNRIWR` ?
RESULT: one

QUERY: Note, next up: `SLYWKSRIWR`
RESULT: three

QUERY: Follow-up entry: `SQLWNRRLYK`
RESULT: two

QUERY: Would you mind doing `RLFWKRRRYA` as well?
RESULT: two

QUERY: Quick one: `SIYWKRRRYK`
RESULT: one

QUERY: Item: `SLLWKKRMYK`
RESULT: two

QUERY: # repeat for `SIVWKRRIYR`
RESULT: three

----------
measured-on: IRAK4 (Homo sapiens, UniProt Q9NWZ3)
Sequence (Q9NWZ3 1-460): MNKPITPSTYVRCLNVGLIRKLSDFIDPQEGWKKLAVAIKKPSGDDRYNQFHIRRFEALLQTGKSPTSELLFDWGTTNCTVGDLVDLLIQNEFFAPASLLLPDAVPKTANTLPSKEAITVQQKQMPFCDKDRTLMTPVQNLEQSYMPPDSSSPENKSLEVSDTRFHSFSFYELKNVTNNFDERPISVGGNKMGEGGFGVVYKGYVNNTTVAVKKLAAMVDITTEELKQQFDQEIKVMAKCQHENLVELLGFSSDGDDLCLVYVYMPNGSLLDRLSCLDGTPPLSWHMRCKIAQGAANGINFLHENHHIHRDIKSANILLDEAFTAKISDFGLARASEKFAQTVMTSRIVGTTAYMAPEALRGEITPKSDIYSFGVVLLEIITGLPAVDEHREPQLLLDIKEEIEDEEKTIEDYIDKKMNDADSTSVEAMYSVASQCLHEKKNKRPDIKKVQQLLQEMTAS
test-details: mRNA display affinity selection against IRAK4, NGS abundance
Type: binding
Design: acids 1-460; NP_057207.2) was purchased from Carna Biosciences; purchased Carna Biosciences (Kobe, Japan)
measurement-setup: IRAK4 selection pulldown (-); Top100 selection hits, NGS
Kindly state Raw reads for each of the entries shown.
// keep it numeric: no unit symbol after the value

QUERY: State the recorded Raw reads for this entry: `SRLWRRRIYH`
RESULT: 1900

QUERY: For `RLCYKRRNWQ` then?
RESULT: 17

QUERY: Lookup `SVLWKKRVWQ`
RESULT: 186

QUERY: Do the same for `SILWKKRVWK` please
RESULT: 1218

QUERY: Check `SLLWKRRIMK` too.
RESULT: 8762

QUERY: Another: `SLRWKNRNHK`
RESULT: 17

QUERY: And what about the sequence `SLLYKRRIYK` ?
RESULT: 3431

QUERY: Next sequence up: `TQRVRNRCYK`
RESULT: 584

QUERY: Query `SQRYKQRCYK` next
RESULT: 160

QUERY: Next: `SMKRQFITRHWT`
RESULT: 9

QUERY: Could you do the same for `RILWRRRRYH` , please?
RESULT: 59

QUERY: Now consider `STRWKNRIYR` .
RESULT: 390

QUERY: Then what about the sequence `TADGLILTPWVT` ?
RESULT: 375

QUERY: Please answer likewise for `TQYWKRRIYN`
RESULT: 322

QUERY: And the next one, `TLLWKRRIYK` ?
RESULT: 176

QUERY: Consider next the sequence `STRWKRRNYT` in the same way.
RESULT: 22

QUERY: // next record `GPILYNRRLFV`
RESULT: 19

QUERY: Same question, `RLFWKRRRYA` this time
RESULT: 21

QUERY: // query: `SLLWKRRCYN`
RESULT: 230

QUERY: Cool, now `SIFWRRRIYK`
RESULT: 64

QUERY: Also need `TMKRIVINWGWG` , thanks.
RESULT: 14

QUERY: Now give it for `ALLWRRRNYH` too.
RESULT: 28

QUERY: Moving on to `SMKRQLITWHWT`
RESULT: 50

QUERY: What about `SLLWKQRVWK` ?
RESULT: 433

QUERY: Another sequence to check: `RQRWRSRDYA`
RESULT: 11

QUERY: Repeat with `SMLFKRRIYK`
RESULT: 22079

QUERY: What do you have for `SMKRKFITWHWT` ?
RESULT: 10

QUERY: And then `SMKRRFITWHWT` , what is it?
RESULT: 11

QUERY: Let us now turn to `SARWRRRNYS`
RESULT: 15

QUERY: Same for `SVRWKHRIYK`
RESULT: 16

QUERY: Entry to check: `AIRWKNRNYK`
RESULT: 43

QUERY: Check `TQRYLSKNYK` too.
RESULT: 33

QUERY: Can you handle `TQRWKRRNYT` next?
RESULT: 80

QUERY: Similarly, `AMSLYWARRRPH` ?
RESULT: 1144

QUERY: Also `RMLWKRRMWH` , if possible.
RESULT: 55

QUERY: Try this sequence too: `SILWKKHIYK`
RESULT: 124

QUERY: And `STLWNKKIYK` ?
RESULT: 26

Provenance of the data: paper PMC10683472
